Reference for the values: patent US20260242478A1

molecular target: T1, Anti-PSMA Fab (SEQ ID NOs: 19, 20); experiment: phage binding ELISA; biotinylated PSMA Fab on neutravidin plate, clonal phage supernatant, anti-M13 HRP detection;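 note: wells were preincubated with blocking buffer either containing PSMA antigen or without it before crude phage supernatant was added, briefly incubated, then washed prior to detection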
T1 construct: Biotinylated and captured on neutravidin coated plates in the phage ELISA; also called 006 PSMA Fab
Where no end group is shown, it is not given here.
# Phage binding ELISA, Anti-PSMA Fab (SEQ ID NOs: 19, 20) signal values compiled below
measurement_name: Phage binding ELISA, Anti-PSMA Fab (SEQ ID NOs: 19, 20) signal

>  <binder>
FAKWCTPVWMCAGL (cysteine pairing not given here; also: displayed as fusion to phage pIII) [Phage-1956]

>  <value_reported>
1.92

$$$$
>  <binder>
LENWCIPAWMCSGF [Phage-1957]

>  <value_reported>
1.92

$$$$
>  <binder>
MVKWCKPAWMCDVI [Phage-1965]

>  <value_reported>
1.91

$$$$
>  <binder>
EGIWCTPAWMCMGF [Phage-1961]

>  <value_reported>
1.91

$$$$
>  <binder>
FEKWCIPDWMCQVM [Phage-1960]

>  <value_reported>
1.91

$$$$
>  <binder>
GEIWCIPPWMCYAP [Phage-1955]

>  <value_reported>
1.92

$$$$
>  <binder>
LVKWCTPAWMCEFI [Phage-1963]

>  <value_reported>
1.91

$$$$
>  <binder>
VVKWCLPPWMCTDF [Phage-1962]

>  <value_reported>
1.91

$$$$
>  <binder>
LEMWCVPAWMCSGF [Phage-1964]

>  <value_reported>
1.91

$$$$
>  <binder>
WDKWCIPEWMCESM [Phage-1959]

>  <value_reported>
1.92

$$$$
>  <binder>
DGKWCIPAWMCVDM [Phage-1958]

>  <value_reported>
1.92

$$$$
>  <binder>
MPKWCTPAWMCAHQ (cysteine pairing not given here; also: displayed as fusion to phage pIII) [Phage-1952]

>  <value_reported>
1.93

$$$$
>  <binder>
AEHWCIPSWMCAGF (cysteine pairing not given here; also: displayed as fusion to phage pIII) [Phage-1951]

>  <value_reported>
1.93

$$$$
>  <binder>
PVKWCIPTWMCAPV (cysteine pairing not given here; also: fused to phage pIII (clonal phage display)) [Phage-1953]

>  <value_reported>
1.92

$$$$
>  <binder>
HEKWCIPEWMCVVT [Phage-1954]

>  <value_reported>
1.92

$$$$
